target_under_test: AHR (Mus musculus)
Sequence (P30561 1-848 P471L/N533S/M589L): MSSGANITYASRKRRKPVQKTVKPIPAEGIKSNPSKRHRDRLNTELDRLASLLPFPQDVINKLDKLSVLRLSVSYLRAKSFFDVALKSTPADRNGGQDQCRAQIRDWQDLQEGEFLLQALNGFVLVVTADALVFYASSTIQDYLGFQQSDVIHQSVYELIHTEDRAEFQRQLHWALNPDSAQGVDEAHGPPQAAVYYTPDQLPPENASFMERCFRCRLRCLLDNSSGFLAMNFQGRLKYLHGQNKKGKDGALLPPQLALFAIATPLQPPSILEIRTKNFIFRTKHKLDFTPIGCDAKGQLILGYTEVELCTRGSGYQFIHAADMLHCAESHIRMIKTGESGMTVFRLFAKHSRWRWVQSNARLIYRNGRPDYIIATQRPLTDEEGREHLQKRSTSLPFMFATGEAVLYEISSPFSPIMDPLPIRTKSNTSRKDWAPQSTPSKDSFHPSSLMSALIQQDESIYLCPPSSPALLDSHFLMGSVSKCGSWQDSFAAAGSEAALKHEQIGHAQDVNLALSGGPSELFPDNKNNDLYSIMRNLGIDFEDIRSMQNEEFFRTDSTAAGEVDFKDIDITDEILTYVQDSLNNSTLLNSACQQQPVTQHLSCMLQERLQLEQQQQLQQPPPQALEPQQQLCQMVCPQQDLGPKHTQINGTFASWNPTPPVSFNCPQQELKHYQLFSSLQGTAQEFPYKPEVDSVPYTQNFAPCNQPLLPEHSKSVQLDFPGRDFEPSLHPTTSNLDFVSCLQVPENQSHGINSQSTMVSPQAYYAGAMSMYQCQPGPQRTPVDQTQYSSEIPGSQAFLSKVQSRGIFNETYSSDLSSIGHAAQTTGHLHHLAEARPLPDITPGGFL
measurement_description: In vitro assay 3: antagonism in mouse cell line (AHR transactivation, firefly luciferase reporter, kynurenic acid prestimulated)
Format: cell-based
measurement_conditions: mouse Hepa 1c1c7 cells, 200 μM kynurenic acid, 20 hours, read-out: AHR Antagonism Mouse IC50
readout_name: IC50 (nM)
Please give a number only; it is taken to be in nM.

Give the measured IC50 for O=C1NCCCC[C@H]1Nc1nc2ccccc2c2nc(-c3ccncc3)nn12 [Example 126]
14.8

For the compound CCCCNC(=O)CNc1nc2ccccc2c2nc(-c3ccc(S(C)(=O)=O)cc3)nn12 [Example 438] , report IC50.
130

Fill in reported IC50 for this entry: CCNC(=O)C(CC)Nc1nc2ccccc2c2nc(-c3cccc(OC(F)(F)F)c3)nn12 (single isomer, unassigned) [Example 319]
0.502

State its IC50 for this compound: CC[C@H](Nc1nc2ccccc2c2nc(-c3cccc(C#N)c3)nn12)C(N)=O [Example 442]
264

Input Cc1ccc2nc(N[C@@H]3CCCCNC3=O)n3nc(-c4cnn(C)c4)nc3c2c1 [Example 158] , output reported IC50.
32.2

Write down IC50 measured for item CC[C@@H](Nc1nc2ccccc2c2nc(-c3ccc(Br)cc3OC(F)(F)F)nn12)C(N)=O [Example 697]
1.19

Tell me its IC50 given COc1cccc(-c2nc3c4ccccc4nc(N[C@H](C)C(=O)N(C)C)n3n2)c1 [Example 110] as the entry.
4.9

Give a short answer stating reported IC50 for O=C1NCCCC[C@H]1Nc1nc2ccccc2c2nc(-c3ccc(Br)o3)nn12 [Example 537] .
1.9

Identify IC50 associated with the compound O=C1NCCCC[C@H]1Nc1nc2ccccc2c2nc(-c3cccc(Cl)c3Cl)nn12 [Example 196]
1.11

Tell us which IC50 value is on record for O=C1NCCCC[C@H]1Nc1nc2ccccc2c2nc(-c3ccc(F)cc3OC(F)(F)F)nn12 [Example 516]
2.18

Data provenance: patent US20230113037A1
